Exercise: for every item that follows, state its recorded Ka.
test system: Mycobacterium tuberculosis; assay: Binding affinity to Mycobacterium tuberculosis DXR by isothermal titration […] assay in presence of 2 mM NADPH and 150 mM NaCl at 279 K and pH 7.6
Numbers only, in ×10⁶ /M.

Please review the following examples before continuing.
In [3]: df
Out[3]:
                 molecule  reported_property  recorded_result
0  CC(=O)N(O)CCCP(=O)(O)O                 Ka             1.79
1     O=CN(O)CCCP(=O)(O)O                 Ka             3.45

Turning to the following molecule.
**Q:** Find the recorded Ka belonging to O=CN(O)CCC(c1ccc(Cl)c(Cl)c1)P(=O)(O)O (stereo not drawn) and report it.
**A:** 2.08

---

system: Plasmodium falciparum; assay: Binding affinity to His6-tagged Plasmodium falciparum DXR expressed in Escherichia coli M15 by isothermal titration […] assay in presence of 2 mM NADPH and 150 mM NaCl at 279 K and pH 7.6
Exercise: for every item that follows, state its recorded Ka.

Please review the following examples before continuing.
                                   molecule  reported_property  recorded_result
0  O=CN(O)CCC(c1ccc(Cl)c(Cl)c1)P(=O)(O)O (stereo not drawn)                 Ka     3.13 ×10⁶ /M
1                       O=CN(O)CCCP(=O)(O)O                 Ka     1.28 ×10⁷ /M

Turning to the following molecule.
**Q:** Find the recorded Ka belonging to CC(=O)N(O)CCCP(=O)(O)O and report it.
**A:** 1.28 ×10⁷ /M
